Test system: potential off-target genomic sites
protocol.text: Off-target analysis by oligo insertion based assay in primary human hepatocytes (sgRNAs)
Assay type: cell-based
applied.conditions: 100 ng Cas9 mRNA, 25 nM sgRNA, 12.5 nM donor oligo, 48 h
Strand notation (5' to 3'): a small letter for the sugar, then the base; units joined by * are phosphorothioate-linked, units joined directly phosphodiester-linked; [ ] holds rarer units or linkages, { } end groups; capitals alone tell only the bases. m = 2'-O-methyl; r = 2'-OH (RNA)
Below is a list of entries, each paired with its recorded # Sites in PHH (off-target integration sites detected) value.
result.type: # Sites in PHH (off-target integration sites detected)

molecule	measured.result
G000487: TTR sgRNA modified sequence, Human, SEQ ID NO: 94; guide sequence of CR003357 (nucleic acid) guide: mU*mU*mC*rUrUrUrGrGrCrArArCrUrUrArCrCrCrArGrGrUrUrUrUrArGrAmGmCmUmAmGmAmAmAmUmAmGmCrArArGrUrUrArArArArUrArArGrGrCrUrArGrUrCrCrGrUrUrArUrCrAmAmCmUmUmGmAmAmAmAmAmGmUmGmGmCmAmCmCmGmAmGmUmCmGmGmUmGmCmU*mU*mU*mU	0
G000488: TTR sgRNA modified sequence, Human, SEQ ID NO: 95; guide sequence of CR003346 (nucleic acid) guide: mA*mA*mA*rGrUrUrCrUrArGrArUrGrCrUrGrUrCrCrGrGrUrUrUrUrArGrAmGmCmUmAmGmAmAmAmUmAmGmCrArArGrUrUrArArArArUrArArGrGrCrUrArGrUrCrCrGrUrUrArUrCrAmAmCmUmUmGmAmAmAmAmAmGmUmGmGmCmAmCmCmGmAmGmUmCmGmGmUmGmCmU*mU*mU*mU	0
